Consider the following molecules; for each one, report its activity at 0.5 µM.
# Test system: SARS-CoV-2 PsVs
# test.name: microbe, parasite or virus in culture
# Assay type: cell-based
# assay.setup: Severe acute respiratory syndrome coronavirus 2, Vero C1008, 24 h, read-out: % Infection rate at 500 nM
Form entry: value (%) — number only.

Observed activity at 0.5 µM on SARS-CoV-2 PsVs, entry CN1CCN(c2ccc3nc(C[C@H](NC(=O)c4cc(C(C)(C)C)nn4C4CC4)C(=O)NC4(C#N)CC4)oc3c2)CC1 [Compound 26] , equals 25

Bench note, SARS-CoV-2 PsVs: entry CC(C)(C)c1cc(C(=O)N[C@@H](Cc2nc3ccc(-c4ccc(N)nc4)cc3o2)C(=O)NC2(C#N)CC2)n(C2CC2)n1 [Compound 34] , its activity at 0.5 µM = 41

Form field, activity at 0.5 µM with SARS-CoV-2 PsVs, item N#CC1(NC(=O)[C@H](Cc2nc3cccc(Br)c3o2)NC(=O)c2cccc(Cl)c2)CC1 [Compound 3] : 65

The recorded activity at 0.5 µM with SARS-CoV-2 PsVs for CC(C)(C)c1cc(C(=O)N[C@@H](Cc2nc3cccc(Cl)c3o2)C(=O)NC2(C#N)CC2)n(C2CC2)n1 [Compound 20] was 40

====

# Test system: SARS-CoV-2 PsVs
# test.name: microbe, parasite or virus in culture
# Type: cell-based
# assay.setup: Severe acute respiratory syndrome coronavirus 2, Vero C1008, 24 h, read-out: % Infection rate at 500 nM
readout.type: activity at 0.5 µM (%)
Enter your answer as a number in %; do not include the unit.

Test item COCCN1CC=C(c2ccc3nc(C[C@H](NC(=O)c4cc(C(C)(C)C)nn4C4CC4)C(=O)NCC#N)oc3c2)CC1 ; SARS-CoV-2 PsVs; reported activity at 0.5 µM was 7

I looked up Cc1cc(-c2ccc3nc(C[C@H](NC(=O)c4cc(C5(C)CC5)nn4C4CC4)C(=O)NC4(C#N)CC4)oc3c2)ccn1 and its activity at 0.5 µM for SARS-CoV-2 PsVs was 34

Field activity at 0.5 µM (SARS-CoV-2 PsVs), entry CC(C)(C)c1cc(C(=O)N[C@@H](Cc2nc3cc(F)cc(Cl)c3o2)C(=O)NC2(C#N)CC2)n(C2CC2)n1 : 60

Summary: Cc1cc(-c2ccc3nc(C[C@H](NS(=O)(=O)c4cccc(Cl)c4)C(=O)NCC#N)oc3c2)ccn1 , SARS-CoV-2 PsVs, activity at 0.5 µM = 96

Bench note, SARS-CoV-2 PsVs: entry N#CC1(NC(=O)[C@H](Cc2nc3ccccc3s2)NC(=O)c2cccc(Cl)c2)CC1 , its activity at 0.5 µM = 67

Reported activity at 0.5 µM (SARS-CoV-2 PsVs) for entry N#CC1(NC(=O)[C@H](Cc2nc3c(Cl)cccc3o2)NC(=O)c2cccc(Cl)c2)CC1 is 96

Bench note, SARS-CoV-2 PsVs: entry CN1CCN(c2ccc3nc(C[C@H](NC(=O)c4cccc(Cl)c4)C(=O)NC4(C#N)CC4)oc3c2)CC1 , its activity at 0.5 µM = 34

For the compound N#CC1(NC(=O)[C@H](Cc2nc3c(Br)cccc3o2)NC(=O)c2cccc(Cl)c2)CC1 , the measured activity at 0.5 µM on SARS-CoV-2 PsVs was 55

Query N#CC1(NC(=O)[C@H](Cc2nc3cccc(Cl)c3o2)NC(=O)c2cccc(Cl)c2)CC1 on SARS-CoV-2 PsVs; activity at 0.5 µM returned: 75
